Assay: Volume of distribution in monkey at 10 mg/kg, iv
Format: ADME, organism-based, Macaca mulatta
Parameters: dose 10 mg/kg, route intravenous
Settings: rhesus monkey, in vivo
Measured Metric: Vd (L/kg)

>>> readout_value("O=C(O)CCCN1CCC[C@H]1COc1ccc(Oc2ccc(Cl)cc2)cc1")
2.07

Recorded values, source ChEMBL document CHEMBL1156785.
